Measured IC50 by item
Test system: SW480
Assay comment: Cytotoxicity against human SW480 cells assessed as reduction in cell viability after 48 hrs by MTS assay
Assay type: functional, cell-based
Assay setup: SW480, 48 h

Here are 3 molecules together with their reported answers.
Chemical smiles: COc1cc2c(cc1OC)[C@@H]1c3cccc(OC)c3N(C(=O)CCn3c(C)nc4ccccc43)C[C@@H]1C2
IC50: > 20 µM

Chemical smiles: COc1cccc2c1N(CCCn1c(C)nc3ccccc31)C[C@@H]1Cc3ccccc3[C@H]21
IC50: > 20 µM

Chemical smiles: COc1cccc2c1N(CCCn1cnc3cc(C)c(C)cc31)C[C@@H]1Cc3ccc(Br)cc3[C@H]21
IC50: > 20 µM

Moving on to the next molecule.
What value of IC50 on SW480 does "COc1cccc2c1N(CCCn1cnc3cc(C)c(C)cc31)C[C@@H]1Cc3ccccc3[C@H]21" have?
> 20 µM
